This collection of values is drawn from ChEMBL document CHEMBL5620374.

Biological target: Histone deacetylase 7 (Homo sapiens)
Sequence (Q8WUI4 whole entry): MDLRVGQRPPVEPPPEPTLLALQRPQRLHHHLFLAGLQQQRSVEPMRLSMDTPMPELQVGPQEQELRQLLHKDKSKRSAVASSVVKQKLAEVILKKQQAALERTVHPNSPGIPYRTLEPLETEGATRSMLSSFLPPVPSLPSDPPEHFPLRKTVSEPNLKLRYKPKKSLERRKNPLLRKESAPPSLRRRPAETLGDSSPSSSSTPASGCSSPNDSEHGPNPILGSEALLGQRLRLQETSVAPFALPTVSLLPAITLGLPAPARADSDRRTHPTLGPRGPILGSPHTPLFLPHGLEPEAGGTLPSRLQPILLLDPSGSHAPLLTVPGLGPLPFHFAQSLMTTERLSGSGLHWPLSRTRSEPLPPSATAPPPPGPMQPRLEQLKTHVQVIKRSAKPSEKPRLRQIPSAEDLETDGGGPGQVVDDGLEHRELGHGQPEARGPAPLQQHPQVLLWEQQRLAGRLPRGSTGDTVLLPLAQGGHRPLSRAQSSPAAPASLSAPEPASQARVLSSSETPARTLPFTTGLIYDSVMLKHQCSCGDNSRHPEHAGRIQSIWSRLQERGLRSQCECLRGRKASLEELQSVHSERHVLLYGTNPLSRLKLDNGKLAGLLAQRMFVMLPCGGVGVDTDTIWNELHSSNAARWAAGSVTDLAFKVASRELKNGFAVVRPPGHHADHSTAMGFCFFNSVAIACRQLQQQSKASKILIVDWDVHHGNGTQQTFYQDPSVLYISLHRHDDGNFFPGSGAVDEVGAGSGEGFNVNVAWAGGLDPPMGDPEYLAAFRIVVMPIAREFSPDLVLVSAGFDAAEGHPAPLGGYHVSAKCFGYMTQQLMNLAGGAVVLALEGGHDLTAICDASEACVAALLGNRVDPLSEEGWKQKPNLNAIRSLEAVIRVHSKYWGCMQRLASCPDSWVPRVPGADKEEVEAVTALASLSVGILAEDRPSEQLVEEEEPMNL
Test: Inhibition of HDAC7 derived from human HeLa cell extract using Ac-Leu-Gly-Lys (Ac)-AMC as substrate by fluorescence based assay
property name: IC50

C=C(c1ccc(OC)c(OC(C)C(=O)NO)c1)c1cc(C)nc2ccccc12 (configuration not stated) ... > 10 µM

May I ask what IC50 has been recorded for C=C(c1ccc(OC)c(OC(F)C(=O)NO)c1)c1cc(C)nc2ccccc12 (configuration not stated) ? > 10 µM

---

system: A2780; assay: cells; details: Homo sapiens, A2780, 72 h
Description: Antiproliferative activity against human A2780 cells incubated for 72 hrs by MTT assay
Overview of recorded pIC50 for various compounds
Quick note: pIC50 values are minus log10 of concentrations in mol/L.

These solved cases illustrate the format of a correct answer.
C=C(c1ccc(OC)c(OC(C)C(=O)NO)c1)c1cc(C)nc2ccccc12 (configuration not stated) ... 7.85
C=C(c1ccc(OC)c(OC(F)C(=O)NO)c1)c1cc(C)nc2ccccc12 (configuration not stated) ... 8.30
C=C(c1cc(C)nc(C)c1)c1ccc(OC)c(OCC(=O)NO)c1 ... 7.44
C=C(c1ccc(OC)c(/C=C/C(=O)NO)c1)c1cc(C)nc2ccccc12 ... 8.30
C=C(c1cc(C)nc(C)c1)c1ccc(OC)c(OC(C)C(=O)NO)c1 (configuration not stated) ... 7.64

May I ask what pIC50 has been recorded for `C=C(c1ccc(OC)c(OCC(=O)NO)c1)c1cc(C)nc2ccccc12` ? 7.80

May I ask what pIC50 has been recorded for `C=C(c1ccc(OC)c(OC(C)(C)C(=O)NO)c1)c1cc(C)nc2ccccc12` ? 8.10

---

molecular target: Histone deacetylase 2 (Homo sapiens)
Sequence (Q92769 whole entry): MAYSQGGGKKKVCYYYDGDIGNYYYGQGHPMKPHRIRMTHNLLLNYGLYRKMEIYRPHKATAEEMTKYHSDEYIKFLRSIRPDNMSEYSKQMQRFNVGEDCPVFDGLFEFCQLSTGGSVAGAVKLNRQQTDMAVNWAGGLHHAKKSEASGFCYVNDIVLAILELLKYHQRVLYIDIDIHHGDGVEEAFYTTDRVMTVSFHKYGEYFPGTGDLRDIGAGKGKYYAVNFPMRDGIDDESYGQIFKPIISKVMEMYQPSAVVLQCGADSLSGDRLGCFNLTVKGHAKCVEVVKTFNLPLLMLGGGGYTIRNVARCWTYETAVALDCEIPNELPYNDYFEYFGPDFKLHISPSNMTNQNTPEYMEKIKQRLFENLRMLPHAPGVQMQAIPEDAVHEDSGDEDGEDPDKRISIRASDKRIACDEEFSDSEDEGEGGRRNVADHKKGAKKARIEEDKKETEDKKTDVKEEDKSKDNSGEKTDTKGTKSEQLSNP
property name: IC50 (nM)
The figure you give is taken to be in nM; do not add the unit.

May I ask what IC50 has been recorded for C=C(c1ccc(OC)c(OC(F)C(=O)NO)c1)c1cc(C)nc2ccccc12 (stereo unspecified) ? 591

---

Overview of recorded IC50 at 72 h for various compounds
test: Antiproliferative activity against human HFL1 cells incubated for 72 hrs by MTT assay; type: toxicity, cell-based
The figure you give is taken to be in nM; do not add the unit.

These solved cases illustrate the format of a correct answer.
C=C(c1ccc(OC)c(/C=C/C(=O)NO)c1)c1cc(C)nc2ccccc12 ... 311
C=C(c1ccc(OC)c(OCC(=O)NO)c1)c1cc(C)nc2ccccc12 ... 195
C=C(c1cc(C)nc(C)c1)c1ccc(OC)c(OC(C)C(=O)NO)c1 (stereo not drawn) ... 213
C=C(c1ccc(OC)c(OC(C)C(=O)NO)c1)c1cc(C)nc2ccccc12 (stereo not drawn) ... 95

May I ask what IC50 at 72 h has been recorded for `C=C(c1ccc(OC)c(OC(C)(C)C(=O)NO)c1)c1cc(C)nc2ccccc12` ? 103

May I ask what IC50 at 72 h has been recorded for COc1ccc(/C=C\c2cc(OC)c(OC)c(OC)c2)cc1O [COMBRETASTATIN A4] ? 82

May I ask what IC50 at 72 h has been recorded for `C=C(c1cc(C)nc(C)c1)c1ccc(OC)c(OCC(=O)NO)c1` ? 264

May I ask what IC50 at 72 h has been recorded for C=C(c1ccc(OC)c(OC(F)C(=O)NO)c1)c1cc(C)nc2ccccc12 (stereo not drawn) ? 230

---

Overview of recorded inhibition at 0.01 µM for various compounds
system: K562; assay: Antiproliferative activity against human K562 cells assessed as cell inhibition rate at 0.01 uM incubated for 72 hrs by MTT assay relative to control; type: functional
The figure you give is taken to be in %; do not add the unit.

These solved cases illustrate the format of a correct answer.
C=C(c1ccc2[nH]ccc2c1)c1cc(/C=C/C(=O)NO)nc2ccccc12 ... 3.16
C=C(c1ccc(OC)cc1)c1cc(/C=C/C(=O)NO)nc2ccccc12 ... 1.41
C=C(c1ccc(OC)cc1)c1cc(C(=O)Nc2ccccc2N)nc2ccccc12 ... -0.16
C=C(c1ccc(OC)c(O)c1)c1cc(/C=C/C(=O)NO)nc2ccccc12 ... -0.17

May I ask what inhibition at 0.01 µM has been recorded for `C=C(c1ccc(OC)c(O)c1)c1cc(COCC(=O)NO)nc2ccccc12` ? 0.83

---

target: Histone deacetylase 3 (Homo sapiens, UniProt O15379); assay: Inhibition of HDAC3 derived from human HeLa cell extract using Ac-Leu-Gly-Lys (Ac)-AMC as substrate by fluorescence based assay
Sequence (O15379 whole entry): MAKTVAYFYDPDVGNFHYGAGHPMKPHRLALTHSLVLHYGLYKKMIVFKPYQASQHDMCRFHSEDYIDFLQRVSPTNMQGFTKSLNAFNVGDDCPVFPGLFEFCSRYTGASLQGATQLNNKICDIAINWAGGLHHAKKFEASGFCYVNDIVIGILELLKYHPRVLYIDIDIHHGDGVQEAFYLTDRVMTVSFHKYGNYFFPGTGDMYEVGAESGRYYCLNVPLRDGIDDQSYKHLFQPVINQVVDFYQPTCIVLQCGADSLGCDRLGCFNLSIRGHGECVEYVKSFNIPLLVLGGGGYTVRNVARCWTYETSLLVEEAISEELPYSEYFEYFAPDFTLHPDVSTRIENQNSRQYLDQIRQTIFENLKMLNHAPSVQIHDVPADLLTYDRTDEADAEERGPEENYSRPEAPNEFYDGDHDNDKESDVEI
property name: IC50 (µM)
The figure you give is taken to be in µM; do not add the unit.

C=C(c1ccc(OC)c(OC(F)C(=O)NO)c1)c1cc(C)nc2ccccc12 (configuration not stated) ... 3.55

May I ask what IC50 has been recorded for C=C(c1ccc(OC)c(OC(C)C(=O)NO)c1)c1cc(C)nc2ccccc12 (configuration not stated) ? 8.91

---

test system: K562; test: Antiproliferative activity against human K562 cells assessed as cell inhibition rate at 1 uM incubated for 72 hrs by MTT assay relative to control; assay type: functional
// not met strictly below 5% in inhibition at 1 µM; met otherwise

Solved cases below.
C=C(c1ccc(OC)cc1)c1cc(COCC(=O)NO)nc2ccccc12 ... met
C=C(c1ccc(OC)c(O)c1)c1cc(/C=C/C(=O)NO)nc2ccccc12 ... met
C=C(c1ccc(OC)c(O)c1)c1cc(C(=O)Nc2ccccc2N)nc2ccccc12 ... not met
COc1ccc(/C=C\c2cc(OC)c(OC)c(OC)c2)cc1O [COMBRETASTATIN A4] ... met
C=C(c1ccc(OC)cc1)c1cc(/C=C/C(=O)NO)nc2ccccc12 ... met
C=C(c1ccc2[nH]ccc2c1)c1cc(COCC(=O)NO)nc2ccccc12 ... met

# check: inhibition at 1 µM of `C=C(c1ccc2[nH]ccc2c1)c1cc(/C=C/C(=O)NO)nc2ccccc12` is greater than or equal to 5% not met

# check: inhibition at 1 µM of `C=C(c1ccc2[nH]ccc2c1)c1cc(C(=O)Nc2ccccc2N)nc2ccccc12` is greater than or equal to 5% not met

# check: inhibition at 1 µM of `C=C(c1ccc(OC)c(O)c1)c1cc(COCC(=O)NO)nc2ccccc12` is greater than or equal to 5% met

# check: inhibition at 1 µM of `C=C(c1ccc(OC)cc1)c1cc(C(=O)Nc2ccccc2N)nc2ccccc12` is greater than or equal to 5% not met

---

tested on: K562; experiment: Antiproliferative activity against human K562 cells assessed as cell inhibition rate at 0.01 uM incubated for 72 hrs by MTT assay relative to control; type: functional
property name: inhibition at 0.01 µM (%)
The figure you give is taken to be in %; do not add the unit.

C=C(c1ccc(OC)c(O)c1)c1cc(C(=O)Nc2ccccc2N)nc2ccccc12 ... 0.16
C=C(c1ccc2[nH]ccc2c1)c1cc(COCC(=O)NO)nc2ccccc12 ... 2.28

May I ask what inhibition at 0.01 µM has been recorded for `COc1ccc(/C=C\c2cc(OC)c(OC)c(OC)c2)cc1O` ? 86.6

May I ask what inhibition at 0.01 µM has been recorded for `C=C(c1ccc2[nH]ccc2c1)c1cc(C(=O)Nc2ccccc2N)nc2ccccc12` ? -0.17

May I ask what inhibition at 0.01 µM has been recorded for `C=C(c1ccc(OC)cc1)c1cc(COCC(=O)NO)nc2ccccc12` ? 2.6
